- System: Sonic hedgehog protein (Shh)
- Assay comment: small-molecule binders of Shh protein, primary screen, biochemical, small-molecule microarray, 635/667 nm fluorescence (AID 1151);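 also: Shh protein binding to compounds spotted on small-molecule microarray slides; score combines spot fluorescence intensity with signal-to-noise across triplicate slides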
- Cond: small-molecule microarray binding, 635 nm fluorescence; higher = more signal
Respond with 1.0 for composite z-score values of 1 and above, 0.0 for values below.

- Compound: "CC(C)(C)OC(=O)CC[C@@]1(C(N)=O)N=C(c2ccc(OCCCO)cc2)O[C@@H]1c1ccccc1CN=[N+]=[N-]"
  Assigned category: 0.0
- Compound: "COc1ccc(C#Cc2ccc3c(c2)[C@]2(C(=O)N3)[C@H](c3ccccc3OCCO)N3[C@H](c4ccccc4)[C@H](c4ccccc4)OC(=O)[C@H]3[C@@H]2C(=O)NC[C@H](O)c2ccccc2)cc1"
  Assigned category: 1.0
- Compound: "C=C(/C=C\\CNS(=O)(=O)c1ccc(C)cc1)[C@H](O)[C@H]1CCCN1S(=O)(=O)c1ccccc1[N+](=O)[O-]"
  Assigned category: 0.0
- Compound: "CC(C)C(=C=CC[C@H](O)c1cccc(OCCO)c1)C[C@H](O)c1ccccn1"
  Assigned category: 1.0
- Compound: "CCOC(=O)C=C1C[C@@H](c2cccc([N+](=O)[O-])c2)O[C@@H](c2cccc([N+](=O)[O-])c2)O1"
  Assigned category: 0.0
- Compound: "O=C(O)C1=CC[C@H]2C(=O)N(c3ccccc3)C(=O)[C@@H]12"
  Assigned category: 0.0
- Compound: "C=C(C(=O)CC[C@@H](OC(=O)c1ccccc1-c1ccccc1C(=O)O)c1cccc(OCCO)c1)C(C)C"
  Assigned category: 1.0
- Compound: "CC(C)C[C@@H]1NC(=O)[C@H]2C[C@@H](C(=O)O)[C@@H](c3cccc(OCCO)c3)N2C1=O"
  Assigned category: 1.0
- Compound: "CN1C(=O)C2C=CC(C(O)c3ccc(I)cc3)N(N(c3ccccc3)c3ccccc3)C2C1=O (stereo not drawn)"
  Assigned category: 0.0
- Compound: "CS(=O)(=O)CCOC(=O)C1=CC(CCCO)=CC(C2CC2)N(Cc2sc3ccccc3c2Cl)C=C1C(=O)OCCS(C)(=O)=O (stereo not drawn)"
  Assigned category: 1.0
- Compound: "CCN1C(=O)C2CC(=O)C3C(CN(S(=O)(=O)c4ccc(C)cc4)C3c3ccc(C)cc3)C2C1=O (stereo not drawn)"
  Assigned category: 0.0
- Compound: "CC(C)Cc1ccc(CN2CC[C@@H](NC(=O)c3ccccc3)C2)cc1"
  Assigned category: 0.0
- Compound: "C=CCNC(=O)[C@H]1[C@@H]2C(=O)O[C@@H](c3ccccc3)[C@@H](c3ccccc3)N2[C@@H](c2ccc(O)cc2)[C@]12C(=O)N(C(=O)OCCOC)c1ccc(C#Cc3ccc(OC)cc3)cc12"
  Assigned category: 1.0
- Compound: "C=C(CCCC)/C(=C/C[C@@H](OC(C)=O)c1cccc(OCCO)c1)c1cc(C(=O)OC)ccc1OC"
  Assigned category: 1.0
- Compound: "COc1ccc([Si](C)(C)[C@@H]2[C@@H](CC(=O)N3CCC[C@H]3CO)O[C@]3(C(=O)N(Cc4cccc(N5C(=O)c6cccc7cccc5c67)c4)c4ccccc43)[C@H]2C)cc1"
  Assigned category: 1.0
- Compound: "C=CCC(OC(C)=O)[C@@H]1[C@@H](N(Cc2cccc3ccccc23)C(=O)c2ccc(C)cc2)c2cc(OCCCO)ccc2N1C(=O)Cc1ccc2ccccc2c1 (stereo partly drawn)"
  Assigned category: 0.0
- Compound: "C=C(C(=O)CC[C@@H](OC(=O)c1cccnc1)c1cccc(OCCO)c1)C(C)C"
  Assigned category: 1.0
- Compound: "C=CCOC(=O)[C@@H]1[C@H]2C(=O)O[C@H](c3ccccc3)[C@H](c3ccccc3)N2[C@H](c2ccc(OCCOC(=O)[C@H]3C[C@H]4C(=O)N[C@@H](CCCCN(C)C)C(=O)N4[C@H]3c3cccc(OCCO)c3)cc2)[C@@]12C(=O)Nc1ccccc12"
  Assigned category: 0.0
- Compound: "COC(=O)[C@@]1(Cc2ccccc2)[C@H]2c3cc(C(=O)N(C)C)n(Cc4ccc(Cl)c(C(F)(F)F)c4)c3C[C@H]2CN1C(=O)c1ccccc1"
  Assigned category: 1.0
- Compound: "CC(C)C[C@H]1NC(=O)CNC(=O)[C@@]23C(=O)N[C@@H](Cc4ccccc4)C2[C@H](C)[C@@]2(C)O[C@H]2C3/C=C/C/C=C\\CNC1=O (stereo partly drawn)"
  Assigned category: 1.0
- Compound: "COC(=O)[C@@]1(Cc2ccc(F)cc2)[C@@H]2C(=CC(=O)[C@H]2CC(=O)C(=O)N2CCCC2)CN1C(=O)c1ccccc1"
  Assigned category: 1.0
- Compound: "C[N+](C)(C)CCCC[C@@H]1NC(=O)[C@H]2C[C@@H](C(=O)NCCCCCN)[C@@H](c3ccc(O)cc3)N2C1=O"
  Assigned category: 1.0
- Compound: "C[C@]1(C(=O)O)c2ccccc2C(=O)N(Cc2cc(C(F)(F)F)cc(C(F)(F)F)c2)[C@H]1c1ccc(CO)cc1"
  Assigned category: 1.0
- Compound: "COC(=O)[C@@]1(Cc2ccc(F)cc2)[C@H]2c3cc(C(=O)N4CCCC4)n(CCc4c[nH]c5cc(F)ccc45)c3C[C@H]2CN1C(=O)c1ccccc1"
  Assigned category: 0.0
- Compound: "O=C1O[C@@H](c2ccccc2)[C@@H](c2ccccc2)N2[C@@H](c3ccccc3OCCO)[C@]3(C(=O)Nc4ccc(C#CC5(O)CCCCCC5)cc43)[C@@H](C(=O)N3CCCCCCC3)[C@H]12"
  Assigned category: 1.0
- Compound: "CO[C@H]1O[C@H](CO)[C@@H](OC(=O)Nc2cccc(F)c2)[C@H](OC(=O)c2cc3ccccc3[nH]2)[C@H]1OC(=O)c1cc2ccccc2[nH]1"
  Assigned category: 0.0
